- experimental_system: T1, P-cadherin-ECD1-3-Fc protein (human P-cadherin-Fc) (human, UniProt P22223 108-440)
- T1 construct: Construct was expressed with signal peptide and pro-peptide (PACE co-transfected to process the propeptide); not shown: hinge and CH2 and CH3 domains of human IgG1
- T1 sequence (P22223 108-440): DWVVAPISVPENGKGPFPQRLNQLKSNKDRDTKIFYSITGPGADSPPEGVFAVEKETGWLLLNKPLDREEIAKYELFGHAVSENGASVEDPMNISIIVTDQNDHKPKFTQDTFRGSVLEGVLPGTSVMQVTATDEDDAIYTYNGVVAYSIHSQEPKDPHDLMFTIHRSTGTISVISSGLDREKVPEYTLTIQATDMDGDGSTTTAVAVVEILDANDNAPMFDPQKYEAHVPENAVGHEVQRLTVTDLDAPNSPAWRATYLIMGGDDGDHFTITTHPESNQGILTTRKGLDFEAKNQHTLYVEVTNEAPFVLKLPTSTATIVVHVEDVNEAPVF
- procedure_text: phage scFv ELISA, coated P-cadherin-ECD1-3-Fc
- Description: P-cadherin-ECD1-3-Fc protein or negative control protein was coated overnight at 4° C. on 96-well Nunc Maxisorp® plates (Thermo Fisher Scientific, Madison, Conn.) at a concentration of 2 μg/mL in PBS+Ca²⁺ and Mg²⁺. […] Signal was developed using TMB (SurModics, Eden Prairie, Minn.), the reaction stopped with H₂SO₄ and the absorbance read at 450 nm on an EnVision® plate reader (Perkin Elmer, Waltham, Mass.).
measurement_name: % of binding of Clone #153 to human P-cadherin-Fc (%)
Provide the reading as a plain figure in %.

Any idea what % of binding of Clone #153 to human P-cadherin-Fc was measured for anti-P-cadherin scFv 153 alanine-mutant H3.9-Ala (scFv, V domains shown, scFv on phage) VH: EVQLVQSGAEVKKPGASVKVSCKASGYTFTSYGISWVRQAPGQGLEWMGWISAYNGNTNYAQKLQGRVTMTTDTSTSTAYMELRSLRSDDTAVYYCATIDTANAFGAWGQGTMVTVSS VL: QSVLTQPPSVSAAPGQKVTISCSGSSSNIGNNYVSWYQQLPGTAPKLLIYDNNKRPSGIPDRFSGSKSGTSATLGITGLQTGDEADYYCGTWDSSLSGVVFGGGTKLTVL ?
61

Any idea what % of binding of Clone #153 to human P-cadherin-Fc was measured for anti-P-cadherin scFv 153 alanine-mutant H2.13-Ala (scFv, V domains shown, scFv on phage) VH: EVQLVQSGAEVKKPGASVKVSCKASGYTFTSYGISWVRQAPGQGLEWMGWISAYNGNTNYAAKLQGRVTMTTDTSTSTAYMELRSLRSDDTAVYYCATIDTANAFGIWGQGTMVTVSS VL: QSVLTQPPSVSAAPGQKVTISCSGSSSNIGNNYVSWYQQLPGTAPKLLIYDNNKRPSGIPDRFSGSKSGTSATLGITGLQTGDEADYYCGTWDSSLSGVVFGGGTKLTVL ?
152
